- measurement.protocol: Single-dose pharmacokinetics of Compound 1 with or without cobicistat pretreatment in healthy subjects
- Type: in vivo, human
- condition.details: male, human, plasma, oral; all subjects treated with Compound 1 and cobicistat
property.measured: half-life

For COc1cc(C)[nH]c(=O)c1CNC(=O)c1c(C)n([C@H](C)C2CCN(CC(F)(F)F)CC2)c2ccccc12 the compound record lists half-life as < 5 h
